// reported melting point for each item listed

Exercise: Bench note: what melting point did CC(C)(C)N1C(=O)CN(c2ccccc2)C1=O show?
Key: 116 °C

====

// reported melting point for each item listed

Recorded melting point, per entry:
Exercise: Bench note: what melting point did COc1ccc2[nH]c3c(C(=O)O)cccc3c2c1 show?
Key: 262 °C

Exercise: Bench note: what melting point did CNCc1ccc2c(Br)c(OC)ccc2c1 show?
Key: 41 to 45 °C

More entries:
Exercise: Bench note: what melting point did CC(C)(C)OC(=O)[C@@H]1CCCN1C(=O)C1CCC1SC(=O)c1ccccc1 (stereo partly specified) show?
Key: 102 to 103 °C

Exercise: Bench note: what melting point did Clc1ccc2c(n1)[nH]c1ccc(Br)cc12 show?
Key: > 220 °C

Exercise: Bench note: what melting point did COC(=O)c1ccc(-c2nc(-c3ccc(C(C)(C)C)cc3)cs2)cc1 show?
Key: 154 to 155 °C

Exercise: Bench note: what melting point did C=CCC1(c2ccccc2)OC(C(=O)OC)Oc2ccc(Cl)cc21 (stereo unspecified) show?
Key: 70 °C

Exercise: Bench note: what melting point did COc1cccc(N(C)C(=O)c2ncc(-c3cccc(C)c3)s2)c1 show?
Key: 85 °C

====

quantity-kind: melting point

Exercise: Bench note: what melting point did O=C(O)c1c(-c2ccc(Cl)c(Cl)c2)csc1N1C(=O)c2ccccc2C1=O show?
Key: 198 to 199 °C

Exercise: Bench note: what melting point did Cn1ncc2nc3c(c(O)c21)CCCC3 show?
Key: > 300 °C

Exercise: Bench note: what melting point did CCOC(=O)C(=O)Nc1c(C)c(C)c2c(c1C)C(c1ccc(C(C)C)cc1)CO2 (configuration not stated) show?
Key: 83 to 84 °C

Exercise: Bench note: what melting point did CCc1c(O)ccc2c1CCCC2 show?
Key: 94 to 95 °C

Exercise: Bench note: what melting point did CC1(C)Oc2ccc(C#N)cc2C(n2nc(-c3c(-c4ccccc4)nn4ccccc34)ccc2=O)C1O (configuration not stated) show?
Key: 209 to 210 °C

Exercise: Bench note: what melting point did COc1ccccc1-c1cc(N)c(S(N)(=O)=O)cc1C show?
Key: 172 to 175 °C

More entries:
Exercise: Bench note: what melting point did Cn1c(COc2ccc(CC3SC(=O)NC3=O)cc2)nc2cnccc21 (configuration not stated) show?
Key: 264 to 265 °C

Exercise: Bench note: what melting point did CCc1nc(S(=O)(=O)Nc2c(Cl)cccc2Cl)nn1-c1ccccc1 show?
Key: 185 to 187 °C

Exercise: Bench note: what melting point did COc1nc(C)cnc1NS(=O)(=O)c1cccnc1-c1ccc(CC(C)(C)C)cc1 show?
Key: 159 to 160 °C

Exercise: Bench note: what melting point did CCOC(=O)c1cnc(Nc2ccccc2O)[nH]c1=O show?
Key: 289 to 291 °C

Exercise: Bench note: what melting point did CCS(=O)(=O)N[C@@H]1CCCC[C@H]1OCC(=O)O (relative stereo) show?
Key: 120 to 122 °C

Exercise: Bench note: what melting point did COCc1nc(C(=O)OC)c(C(=O)OC)n1Cc1ccc([N+](=O)[O-])cc1 show?
Key: 107 to 110 °C

====

quantity-kind: melting point

Exercise: Bench note: what melting point did CCn1cc(C(=O)O)c(=O)c2cn(C)nc21 show?
Key: 273 to 275 °C

Exercise: Bench note: what melting point did OCc1nc2ccc(OC(F)(F)F)cc2[nH]1 show?
Key: 192 to 194 °C

Exercise: Bench note: what melting point did CCCCCCCC(=O)OCOC1=C(C(=O)Nc2ccccn2)N(C)S(=O)(=O)c2ccccc21 show?
Key: 98 to 99 °C

Next item in the queue.
Exercise: Bench note: what melting point did CCOC(=O)c1cnc2ccc(Cl)cc2c1O show?
Key: > 260 °C
